# Test name: Metabolic stability in human liver microsomes assessed as intrinsic clearance by LC-MS/MS analysis
# Type: ADME, Microsome
# Run parameters: read-out: CLH
Reported microsomal CLint by item:

Fill blank: measured microsomal CLint of the compound FC(F)(F)c1nccc(N[C@H]2CC[C@@H](Nc3ccc4nnc(C5CC5)n4n3)CC2)n1 is ____. < 3 µL/min/mg

Fill blank: measured microsomal CLint of the compound FC(F)(F)c1nccc(N[C@H]2CC[C@@H](Nc3ccc4nnc(C(F)(F)F)n4n3)CC2)n1 is ____. < 3 µL/min/mg

Fill blank: measured microsomal CLint of the compound FC(F)(F)c1nccc(O[C@H]2CC[C@@H](Nc3ccc4nnc(Cl)n4n3)CC2)n1 is ____. < 3 µL/min/mg

Fill blank: measured microsomal CLint of the compound FC(F)(F)c1nccc(N[C@H]2CC[C@@H](Nc3ccc4ncc(Cl)n4n3)CC2)n1 is ____. 9.9 µL/min/mg
